target: Angiopoietin-1 receptor (Homo sapiens); conditions: at 0.1 µM
Description: GSK_PKIS: TIE2 mean inhibition at 0.1 uM [Nanosyn]
quantity kind: inhibition (%)

>>> value_observed("Cc1cc(Cl)cc2c1NC(=O)C2=NNc1ccc(S(N)(=O)=O)cc1")
2.08
>>> value_observed("CN(C)C(=O)O[C@H]1CN[C@H](C#Cc2cc3ncnc(Nc4ccc(OCc5cccc(F)c5)c(Cl)c4)c3s2)C1")
2.98
>>> value_observed("Cc1nc(-c2ccccc2)n2nc(NCCCN3CCOCC3)ncc12")
4.19
>>> value_observed("NC(=O)c1cccc(Nc2nccc(Nc3cccc(F)c3)n2)c1")
1.74
>>> value_observed("COC(=O)c1ccc2c(c1)C(=Cc1cc(Br)c(O)c(Br)c1)C(=O)N2")
3.09
>>> value_observed("Cc1ccc(Nc2ccnc(Nc3cccc(C(N)=O)c3)n2)cc1O")
4.56
>>> value_observed("CN1CCN(C(=O)c2ccc(NC(=O)Nc3ccc(N(C)c4ccnc(Nc5ccc(CS(C)(=O)=O)cc5)n4)cc3)cc2)CC1")
33.2
>>> value_observed("Nc1nccc(C#Cc2cncnc2Nc2ccc(OCc3cccc(F)c3)c(Cl)c2)n1")
4.38
>>> value_observed("Cc1ccc(C(=O)NC2CC2)cc1-c1ccc2[nH]ncc2c1")
0.34
>>> value_observed("N#Cc1cccc(Nc2nccc(-c3cnn4ncccc34)n2)c1")
3.66
>>> value_observed("NC(=O)c1sc(-n2cnc3ccccc32)cc1OCc1ccccc1Br")
2
>>> value_observed("CCn1c(-c2nonc2N)nc2ccc(F)cc21")
2.7
>>> value_observed("CS(=O)(=O)Nc1cccc(-c2ccc3c(NC(=O)C4CC4)n[nH]c3c2)c1")
1.52
>>> value_observed("Nc1ccc(C#Cc2cncnc2Nc2ccc(OCc3cccc(F)c3)c(Cl)c2)cc1")
1.84
>>> value_observed("Nc1nccc(-c2c(-c3ccc(F)cc3)nn3cc(C(F)(F)F)ccc23)n1")
1.2
>>> value_observed("OCc1ccc(-c2nc(-c3ccccn3)c(-c3ccc4c(c3)OCO4)[nH]2)cc1")
2.48
>>> value_observed("Cc1ccc2c(c1)/C(=N/Nc1ccc(S(N)(=O)=O)cc1)C(=O)N2")
-0.15
>>> value_observed("NS(=O)(=O)c1ccc(Nc2cc(-c3cccc(O)c3)n[nH]2)cc1")
4.05
>>> value_observed("COc1cccc(-n2ncc3c(N/N=C/c4ccc(S(C)(=O)=O)cc4)ncnc32)c1")
7.64
>>> value_observed("NS(=O)(=O)c1ccc(NC=C2C(=O)Nc3ccc4ncsc4c32)cc1")
1.88
>>> value_observed("CN(c1ccc(NC(=O)Nc2ccc(OC(F)(F)F)cc2)cc1)c1ccnc(Nc2cccc(S(N)(=O)=O)c2)n1")
36
>>> value_observed("CC(C)c1ccc(Nc2nccc(-c3cnn4ncccc34)n2)cc1")
2.92
>>> value_observed("O=C(Nc1ccc(Oc2ccc3[nH]c(NC(=O)c4ccco4)nc3c2)cc1)Nc1cc(C(F)(F)F)ccc1F")
49.4
>>> value_observed("COc1cccc(-n2ncc3c(N/N=C/c4ccc(C)cc4)ncnc32)c1")
4.38
>>> value_observed("Nc1nccc(-c2c(-c3ccc(F)cc3)ncn2CCCN2CCOCC2)n1")
8.3
>>> value_observed("COc1cccc(-n2nc(C)c3c(N/N=C(\\C)c4ccncc4)ncnc32)c1")
0.73
>>> value_observed("NS(=O)(=O)c1cccc(-c2cc3ccncc3cc2OCc2ccccc2)c1")
4.31
>>> value_observed("O=C1Nc2ccc(-c3cccnc3)cc2C1=Cc1cc(Br)c(O)c(Br)c1")
1.2
>>> value_observed("CCS(=O)(=O)c1ccc(OC)c(Nc2nccc(N(C)c3ccc4c(C)n[nH]c4c3)n2)c1")
6.69
>>> value_observed("N#Cc1c(NC(=O)c2ccccc2F)sc2c1CCCC2")
-1.22
